Please go through the items and note down their apparent Kd.
- Test system: MS2 coat protein
- assay comment: apparent Kd, MS2 coat protein; higher = weaker binding; RNA-MaP array; FMN 200 µM where present
- setup conditions: designed as: OFF switch for flavin mononucleotide; no ligand
Quick note: unit goes after the number.

Tell me the measured apparent Kd of `GGAAAUCAUGUAGGAUAUGCAUGGCGAAGCUACGCAGAAGGACAUGAGGAUCACCCAUGUUAUAGCGUUCGAGAAAGGAUGCAA` , please.
0.0201 µM

Next entry: `UGAACUAUGUAGAAGGCCCAUAUUUAUAUUUAGGGAGGAUAUACAUGAGGAUCACCCAUGUAUAGAGCAAGUGGACUUGUCAGU`
0.00919 µM

Next entry: `UCCCAGUAAGGAUAUCAGGCAAGUCUCCGGGAGCUUAGUCGUGAGAAGGUACAUGAGGAUCACCCAUGUGAUUG`
0.058 µM

Next entry: `UAUUCUUACGAAGGAUAUGGUUACAUGAGGAUCACCCAUGUAUGUAUAUUGAUCUAGUUUUUUAACCAGAAGGUCGUGAGUAUA`
0.0404 µM

Next entry: `GUUUACGCGGAAGGAUAUACAUUUGACAUCUUGAUGCGCGCAAUACUCACAUGAGGAUCACCCAUGUAGAAGGUCUGCGAAAGA`
0.0151 µM

Next entry: `CUCAGACAUGAGGAUCACCCAUGUGAGGAUAUGAUGCGAUCGUCGAAAGACGAUAGCAUCAGAAGGCACAAAUG`
0.0784 µM

---

- System: MS2 coat protein
- assay comment: apparent Kd, MS2 coat protein; higher = weaker binding; RNA-MaP array; FMN 200 µM where present
- setup conditions: ligand present: flavin mononucleotide; designed as: OFF switch for flavin mononucleotide
Please go through the items and note down their apparent Kd.
Reply with just the number (in nM).

Lookup: apparent Kd / MS2 coat protein / `GGUGAAGCAGGAUAUGUGCCGAUAUACAUGAGGAUCACCCAUGUCAUGUAGGAACCGCGUAUAGAAGGGCUUCACC`
67.1

Next entry: `CCGACGAAAGUCGAACGAUGUAGCAGAAGGACAUGAGGAUCACCCAUGUCAGCUGUAACAGCCAUGUAGGAUAUGCUACAUCGU`
5.85

Next entry: `AGCUCCGCGGCCACUUAUUGUGCACAUGAGGAUCACCCAUGUCAGGAUAUCCUUGAGCCUCACAAGGAGAAGGGACAUAAGGUU`
334

---

- Test system: MS2 coat protein
- assay comment: apparent Kd, MS2 coat protein; higher = weaker binding; RNA-MaP array; FMN 200 µM where present
- setup conditions: ligand present: flavin mononucleotide; designed as: OFF switch for flavin mononucleotide
measured metric: apparent Kd (nM)
Reply with just the number (in nM).

Lookup: apparent Kd / MS2 coat protein / `GCCCUCGCUGAGGAUAUUAUCUGGUUCGAUUGAUAAGAAGGCAGUACAUGAGGAUCACCCAUGUGGUUCGUUCG`
377

Next entry: `AAGGAUAGAGGAUAUACAUAGAUACAGAUUCGUGUAGAACUACAUGAGGAUCACCCAUGUAGAAGGCUAUCCUA`
46

Next entry: `CAUUGGUAAGGAUAUGCACCGAUCUCCGAAAGGAGAUCGGUGCAGAAGGUACAUGAGGAUCACCCAUGUUGAUG`
63.9

Next entry: `GCUGCCGCUGCAGGAUAUCAGCACGUGUAGUGCUGAGAAGGGCACAUGAGGAUCACCCAUGUGAUCAAUUAAUAAGCGUGCAGC`
16.5

Next entry: `GUUUUUCCUCAUGUACAUGAGGAACAUGAGGAUCACCCAUGUAGAAGGAAUUCCCUUAAAUUAAGUUAGGAUAUACAUAUAUUU`
77.4

Next entry: `UAAUUUAACAAGAAGGCUAACAUGAGGAUCACCCAUGUUGUACAUGGAUAUAGAGGAUAUUGCUAAUAAUUAUUUAUCAUAAUU`
19.2

Next entry: `UACUCAUGUGAGAAGGGACGUAUCUCCAUGAGGGUAGGGCUAUUAGAGAAGUCAGGAUAUCACAUGAGGAUCACCCAUGUGACG`
7.02

Next entry: `GGAUCGAGUGUGAGGAUAUACCACUGGAUACAGUGGUAGAAGGCACAUGAGGAUCACCCAUGUCUCUACGAUCC`
51.8

Next entry: `AACUUGUCAGGAUAUCUUACAUUUGCAUCAUAGUUACCAUUGGAGAAGGGACAUGAGGAUCACCCAUGUUUGGU`
39.3

Next entry: `CCUUGACAUGAGGAUCACCCAUGUUAGGAUAUAACAUUAGACACUACAGUAUGUAGUGUUAGAAGGGAUAUGGG`
28.5

Next entry: `GCUUCGGCUGUGAGGAUAUGGCUUCGGAAAUGAAGUUAGAAGGCACAUGAGGAUCACCCAUGUAAGGUUGAAGU`
17.8

Next entry: `GGAUAGGACCGAGGAUAUACGUGCUAGAGAUACUAGCAAAAUUUCCUCACAUGAGGAUCACCCAUGUAGAAGGCUGUCCUAUCG`
12.5

Next entry: `CCGGAAUUACAGGAUAUAGGAGUCGAUAGACACCUAGAAGGGUAGACAUGAGGAUCACCCAUGUGUCCUACCGG`
182
